Test: Cytostatic activity against human wild type CEM/0 cellss
Type: cell-based, CCRF-CEM
Conditions: wild-type CEM/0 cells
metric: CC50 (µM)
State just the number; it will be interpreted in µM.

Guide cases for CC50, answers given:
compound: Cc1cn([C@H]2C=C[C@@H](COP3(=O)OCc4cc(C(OC(=O)C(C)C)OC(=O)C(C)C)cc(C(C)(C)C)c4O3)O2)c(=O)[nH]c1=O (some centres not stated)
CC50 (µM): 20

compound: Cc1cc(C(OC(=O)C(C)C)OC(=O)C(C)C)cc2c1OP(=O)(OC[C@@H]1C=C[C@H](n3cc(C)c(=O)[nH]c3=O)O1)OC2 (some centres not stated)
CC50 (µM): 20

compound: CC(=O)OC(OC(C)=O)c1cc(C)c2c(c1)COP(=O)(OC[C@@H]1C=C[C@H](n3cc(C)c(=O)[nH]c3=O)O1)O2 (some centres not stated)
CC50 (µM): 44

compound: CC(=O)OC(OC(C)=O)c1cc2c(c(C(C)(C)C)c1)O[P@](=O)(OC[C@@H]1C=C[C@H](n3cc(C)c(=O)[nH]c3=O)O1)OC2
CC50 (µM): 17

compound: Cc1cc(C=O)cc2c1OP(=O)(OC[C@@H]1C=C[C@H](n3cc(C)c(=O)[nH]c3=O)O1)OC2 (some centres not stated)
CC50 (µM): 82

compound: Cc1cn([C@H]2C=C[C@@H](CO[P@]3(=O)OCc4cc(C(OC(=O)C(C)C)OC(=O)C(C)C)cc(C(C)(C)C)c4O3)O2)c(=O)[nH]c1=O
CC50 (µM): 14

Shifting focus to the compound that follows.
What value of measured CC50 is listed for Cc1cn([C@H]2C=C[C@@H](CO[P@]3(=O)OCc4cc(C=O)cc(C(C)(C)C)c4O3)O2)c(=O)[nH]c1=O ?
27
